B1: library; numbered along this chain (parent)
chain: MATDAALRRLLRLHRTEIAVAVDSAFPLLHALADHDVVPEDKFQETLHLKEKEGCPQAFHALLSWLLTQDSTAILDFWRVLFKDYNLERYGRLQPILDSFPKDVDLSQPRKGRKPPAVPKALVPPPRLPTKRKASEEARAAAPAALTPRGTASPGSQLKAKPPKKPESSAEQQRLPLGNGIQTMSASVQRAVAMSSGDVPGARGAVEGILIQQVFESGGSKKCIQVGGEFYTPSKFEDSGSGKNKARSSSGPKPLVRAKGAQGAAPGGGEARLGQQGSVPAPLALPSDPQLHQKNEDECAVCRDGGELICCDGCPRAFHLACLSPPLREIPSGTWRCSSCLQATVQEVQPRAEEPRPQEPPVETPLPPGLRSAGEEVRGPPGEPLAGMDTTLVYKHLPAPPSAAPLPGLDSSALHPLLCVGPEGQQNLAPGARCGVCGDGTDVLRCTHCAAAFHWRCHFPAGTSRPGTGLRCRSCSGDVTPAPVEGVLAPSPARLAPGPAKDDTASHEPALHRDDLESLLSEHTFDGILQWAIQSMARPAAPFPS

Variants of: B1
Assay: AIRE transcriptional activation functional score (insulin promoter-GFP; nonsense median 0, synonymous median 1) (normalised score); higher = higher AIRE activity (more reporter activation)
Settings: with insulin promoter-GFP reporter in HEK293
Assign TRUE whenever AIRE transcriptional activation functional score does not fall below 1; assign FALSE whenever it does.

These recorded examples may help you get a feel for the data.
• S535V = FALSE
• P492Y = FALSE
• A142K = FALSE
• M194W = FALSE
• K395Q = TRUE
• F318V = FALSE

Now look at this one.
Quick check: does `R316T` have AIRE transcriptional activation functional score greater than or equal to 1?
TRUE
